# protocol_summary: Metabolic stability in human liver microsomes
# Assay type: in vitro ADME
# experimental_setup: 0.5 mg protein/mL
A collection of molecules and their measured microsomal CLint
# output: bare number, implied unit µL/min/mg

# example entries with known answers
INSERT INTO measurements (molecule, measurement_type, quantitative_result) VALUES
  ('CS(=O)(=O)c1ccc(-c2c(Cl)cc(NC(=O)Cc3ccc(S(=O)(=O)CC4CC4)cc3)cc2Cl)cc1', 'microsomal CLint', 415),
  ('CS(=O)(=O)c1ccc(C(CO)C(=O)Nc2cc(Cl)c(-c3ccc(S(=O)(=O)C4CC4)cc3)c(Cl)c2)cc1 (single isomer, unassigned)', 'microsomal CLint', 13.7),
  ('CC(C)Cc1ccc(-c2c(Cl)cc(NC(=O)Cc3ccc(S(C)(=O)=O)cc3)cc2Cl)cc1C#N [LIT-00093, reference compound]', 'microsomal CLint', 295),
  ('CCS(=O)(=O)c1ccc(C(COC)C(=O)Nc2cc(Cl)c(-c3ccc(S(C)(=O)=O)cc3)c(Cl)c2)cc1 (stereo not shown)', 'microsomal CLint', 17.8),
  ('CCS(=O)(=O)c1ccc(-c2c(Cl)cc(NC(=O)C(COC)c3ccc(S(C)(=O)=O)cc3)cc2Cl)cc1 (stereo not shown)', 'microsomal CLint', 13),
  ('COCC(C(=O)Nc1cc(Cl)c(-c2ccc(S(C)(=O)=O)cc2)c(Cl)c1)c1ccc(S(=O)(=O)CC2CC2)cc1 (stereo not shown)', 'microsomal CLint', 121);

Now consider a different molecule.
INPUT: I'd like to know its microsomal CLint. The molecule in question is CCS(=O)(=O)c1ccc(C(COC)C(=O)Nc2cc(Cl)c(-c3ccc(S(=O)(=O)C4CC4)cc3)c(Cl)c2)cc1 (single isomer, unassigned) [Example 40]
OUTPUT: 9.6
